OD450: recorded values
# MEASUREMENT TARGET: T1, human MSLN-R3-his protein (human, UniProt Q13421 487-598)
# T1 construct: Region 3 of human mesothelin, made in HEK293E cells, His-tagged; also called human MSLN-R3 protein; hMSLN-R3-his; not shown: His tag
# T1 sequence (Q13421 495-606): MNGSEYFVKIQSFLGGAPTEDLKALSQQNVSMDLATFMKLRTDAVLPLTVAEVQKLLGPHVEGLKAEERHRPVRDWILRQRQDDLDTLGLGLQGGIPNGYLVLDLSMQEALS
# ASSAY INFO: ELISA on coated MSLN-R3; antibody 100 nM
Include the unit after the number when you answer.

Solved cases below.
BINDER	OBSERVATION TYPE	ASSAY RESULT
S009-F8-24.14 (antibody, human IgG1, kappa, V domains shown) VH: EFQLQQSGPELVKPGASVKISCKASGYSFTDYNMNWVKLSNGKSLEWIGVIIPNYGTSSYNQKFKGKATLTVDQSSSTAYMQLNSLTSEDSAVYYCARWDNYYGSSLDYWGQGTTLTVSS VL: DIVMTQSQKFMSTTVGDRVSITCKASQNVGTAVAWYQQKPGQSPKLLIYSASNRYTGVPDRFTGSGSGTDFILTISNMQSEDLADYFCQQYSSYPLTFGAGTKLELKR	OD450	0.06 OD450
S009-F8-29.1 (antibody, human IgG1, kappa, V domains shown) VH: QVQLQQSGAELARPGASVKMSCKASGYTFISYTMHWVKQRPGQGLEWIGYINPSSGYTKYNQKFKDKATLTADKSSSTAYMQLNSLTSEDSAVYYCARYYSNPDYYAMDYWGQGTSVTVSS VL: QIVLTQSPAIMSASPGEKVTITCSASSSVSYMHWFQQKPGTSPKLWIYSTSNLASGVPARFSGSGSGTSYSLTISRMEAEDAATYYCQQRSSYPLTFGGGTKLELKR	OD450	0.1 OD450
S009-F8-33.12 (antibody, human IgG1, kappa, V domains shown) VH: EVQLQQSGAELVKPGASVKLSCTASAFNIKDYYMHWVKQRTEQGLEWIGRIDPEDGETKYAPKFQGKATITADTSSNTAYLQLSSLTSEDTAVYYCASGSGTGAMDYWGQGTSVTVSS VL: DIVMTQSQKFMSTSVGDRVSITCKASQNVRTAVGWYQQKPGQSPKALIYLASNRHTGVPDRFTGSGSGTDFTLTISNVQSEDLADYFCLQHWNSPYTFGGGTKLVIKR	OD450	0.06 OD450

Read the next record carefully.
Query: // returns reported OD450 for input S009-F8-8.22 (antibody, human IgG1, kappa, V domains shown) VH: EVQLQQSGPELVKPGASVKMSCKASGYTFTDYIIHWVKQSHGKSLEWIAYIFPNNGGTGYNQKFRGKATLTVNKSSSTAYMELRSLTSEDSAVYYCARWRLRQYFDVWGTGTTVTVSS VL: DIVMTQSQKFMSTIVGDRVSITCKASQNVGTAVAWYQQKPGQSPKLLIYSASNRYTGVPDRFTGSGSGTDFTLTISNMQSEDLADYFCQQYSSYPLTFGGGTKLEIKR
Response: 0.15 OD450
